# STUDY_SYSTEM: motilin receptor (rabbit antral smooth muscle membranes) (Oryctolagus cuniculus)
# Construct: from tissue; host or cells: rabbit antral smooth muscle membranes
# Sequence (G1T803 1-400): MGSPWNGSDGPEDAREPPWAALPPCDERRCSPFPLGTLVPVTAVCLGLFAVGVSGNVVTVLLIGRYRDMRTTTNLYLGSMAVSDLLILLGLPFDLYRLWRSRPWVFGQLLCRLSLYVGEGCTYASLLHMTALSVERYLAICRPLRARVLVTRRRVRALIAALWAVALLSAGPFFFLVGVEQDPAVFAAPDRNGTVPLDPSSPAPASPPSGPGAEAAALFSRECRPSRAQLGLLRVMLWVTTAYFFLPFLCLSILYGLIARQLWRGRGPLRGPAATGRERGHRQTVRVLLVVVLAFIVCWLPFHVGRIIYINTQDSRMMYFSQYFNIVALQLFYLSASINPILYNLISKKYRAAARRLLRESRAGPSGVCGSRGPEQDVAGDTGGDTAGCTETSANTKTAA
# EXPERIMENT_NOTES: Motilin receptor binding affinity: displacement of [125I-Tyr7,Nle13]motilin(porcine)
# PROTOCOL_CONDITIONS: negative logarithm of concentration displacing 50% of [125I-Tyr7,Nle13]motilin(porcine) from rabbit antral smooth muscle membranes; read-out: pIC50 (converted)
Where a SMILES comes first, the peptide text is derived from it. [ ]: non-standard residue; d: D form. 3Pal = N[C@@H](Cc1cccnc1)C(=O)O; Cha = N[C@@H](CC1CCCCC1)C(=O)O
QUANTITY_MEASURED: IC50 (nM)
Answer format: numeric, nM implied, no suffix.

// worked examples, IC50 included
| COMPOUND | QUANTITY_UNIT | IC50 |
| --- | --- | --- |
| CC[C@H](C)[C@H](NC(=O)[C@H](Cc1ccccc1)NC(=O)[C@@H](NC(=O)[C@@H](N)Cc1ccccc1)C(C)C)C(=O)N[C@@H](CC1CCCCC1)C(=O)N[C@H](C(=O)N[C@@H](Cc1ccc(O)cc1)C(=O)NCC(=O)N[C@@H](CCC(=O)O)C(=O)N[C@@H](CC(C)C)C(=O)N[C@@H](CCC(N)=O)C(=O)N[C@@H](CCCNC(=N)N)C(=O)N[C@@H](CC(C)C)C(=O)N[C@@H](CCC(N)=O)C(=O)O)[C@@H](C)O [[Phe^3, Cha^5, Leu^13]pMOT(1-14)] (H-FVFI[Cha]TYGELQRLQ-OH) | nM | 25.1 |
| CC[C@H](C)[C@H](NC(=O)[C@H](Cc1cccnc1)NC(=O)[C@@H](NC(=O)[C@@H](N)Cc1ccccc1)C(C)C)C(=O)N[C@@H](Cc1ccccc1)C(=O)N[C@H](C(=O)N[C@@H](Cc1ccc(O)cc1)C(=O)NCC(=O)N[C@@H](CCC(=O)O)C(=O)N[C@@H](CC(C)C)C(=O)N[C@@H](CCC(N)=O)C(=O)N[C@@H](CCCNC(=N)N)C(=O)N[C@@H](CC(C)C)C(=O)N[C@@H](CCC(N)=O)C(=O)O)[C@@H](C)O [[Pal^3, Leu^13]pMOT(1-14)] (H-FV[3Pal]IFTYGELQRLQ-OH) | nM | 158 |
| CC[C@H](C)[C@H](NC(=O)[C@H](Cc1ccccc1)NC(=O)[C@@H](NC(=O)[C@@H](N)CC1CCCCC1)C(C)C)C(=O)N[C@@H](Cc1ccccc1)C(=O)N[C@H](C(=O)N[C@@H](Cc1ccc(O)cc1)C(=O)NCC(=O)N[C@@H](CCC(=O)O)C(=O)N[C@@H](CC(C)C)C(=O)N[C@@H](CCC(N)=O)C(=O)N[C@@H](CCCNC(=N)N)C(=O)N[C@@H](CC(C)C)C(=O)N[C@@H](CCC(N)=O)C(=O)O)[C@@H](C)O [[Cha^1, Phe^3, Leu^13]pMOT(1-14)] (H-[Cha]VFIFTYGELQRLQ-OH) | nM | 29.5 |

For CC[C@H](C)[C@H](NC(=O)[C@H](Cc1ccccc1)NC(=O)[C@@H](NC(=O)[C@@H](N)Cc1ccccc1)C(C)C)C(=O)N[C@@H](Cc1ccccc1)C(=O)N[C@H](C(=O)N[C@@H](Cc1ccc(O)cc1)C(=O)NCC(=O)N[C@@H](CCC(=O)O)C(=O)N[C@@H](CC(C)C)C(=O)N[C@@H](CCC(N)=O)C(=O)N[C@H](CCCNC(=N)N)C(=O)N[C@@H](CC(C)C)C(=O)N[C@@H](CCC(N)=O)C(=O)O)[C@@H](C)O [[Phe^3, D-Arg^12, Leu^13]pMOT(1-14)] (H-FVFIFTYGELQ[dR]LQ-OH) the compound record lists IC50 as 81.3
